Where these numbers come from: paper PMC12040169

Below, each entry is listed alongside its reported viability at 28.5 h, 10 µM.
test: in vitro; conditions: human, hela cells, % viability

Compound	Measurement Units	viability at 28.5 h, 10 µM
CC(=O)c1cc2c(N)c(C(N)=O)sc2nc1C	%	102
CC(Sc1nc(-c2ccccc2)nc2ccccc12)C(=O)Nc1ccccc1C(F)(F)F (centres unmarked)	%	103
Nc1cccc(-c2nc(-c3cccnc3)cnc2N)c1	%	95.3
Cc1csc2c(N3CCC(OCCN4CCCC4)CC3)ncnc12	%	84
Cc1cccc(C(=O)N/N=C/c2ccoc2)c1O	%	90.7

====

Below, each entry is listed alongside its reported viability at 28.5 h, 10 µM.
assay: in vitro; details: human, hela cells, % viability

Molecule	viability at 28.5 h, 10 µM, %
Cc1nn(CC(=O)NC(C)C)c(=O)c2cc3ccsc3n12	83.9
O=c1c2c3c(sc2ncn1CC(O)COc1ccc(F)cc1)CCC3 (stereo not shown)	102
COC(=O)CCc1ccc(S(=O)(=O)N2CCCN(Cc3ccc(C)o3)CC2)cc1	99.8
O=C(Cn1cnc2ccccc2c1=O)Oc1cccc(NC2=NS(=O)(=O)c3ccccc32)c1	83.6
CCC(Cc1c[nH]c2ccccc12)NC(=N)N (stereo not shown)	102
Cn1c(COc2cccc3cccnc23)nnc1SCC(=O)O	89.4
c1cncc(C(N2CCOCC2)N2CCOCC2)c1	94.5
Cc1cccc(C(=O)Nc2nc3ccc(S(C)(=O)=O)cc3s2)c1	89.8
COc1ccc(C2CC(c3cccc(Br)c3)Nc3ncnn32)cc1OC (stereo not shown)	82.7
COc1ccc(CCC(=O)Nc2cc(N3CCNCC3)ncn2)cc1 [CBK004231T]	92.1

====

Below, each entry is listed alongside its reported viability at 28.5 h, 10 µM.
experiment: in vitro; details: human, hela cells, % viability

Compound	viability at 28.5 h, 10 µM
Cc1ccc(C(=O)O/C(=C/c2nc3ccccc3n2Cc2cccc3ccccc23)c2ccc(C)cc2)cc1 [CBK262485]	108%
CCC(c1ccc(F)cc1)N(C)C(=O)Cn1cccc(C(=O)NC2CCCCC2)c1=O (centres unmarked) [CBK286114]	96.4%
CN(CC(=O)NCc1ccco1)C1CCCCC1 [CBK304471]	85.6%
O=C(O)c1sccc1S(=O)(=O)Nc1ccc(Cc2nc3ccccc3s2)cc1 [CBK295286]	92.8%
CC(C)N(C)C1CCN(S(=O)(=O)c2cccc([N+](=O)[O-])c2)CC1 [CBK294462]	88.7%

====

assay: in vitro; conditions: human, hela cells, % viability

Molecule	viability at 28.5 h, 10 µM [%]
O=C(c1sc2ccccc2c1C1CCN(Cc2ccccc2F)C1)N1CCOCC1 (centres unmarked) [CBK286260]	103
COc1ccnc(N2CCN(C(=O)c3cnn(C)c3)CC2)n1 [CBK306125]	90.7
COC(=O)CN1CCCC[C@H]2CN(C(=O)Cc3ccsc3)C[C@H]21 [CBK285509]	111
O=C(NCCN1CCN(C(=O)Nc2ccccc2)CC1)C1CCCC1 [CBK305915]	95.8
CS(=O)(=O)c1ccccc1S(=O)(=O)N1CCN(c2nc3ccccc3s2)CC1 [CBK269468]	97.7
Cc1ccc(C2=NN(C(=O)CCC(=O)O)C(c3ccc4nccnc4c3)C2)cc1 (centres unmarked) [CBK287802]	109
CCCC[C@H]1CC[C@H](C(=O)Oc2ccc(OC(C)C(=O)O)cc2)CC1 (some centres unmarked) [CBK160854]	93.8
Cc1c(C(=O)N(C)CC(C)C)nnn1-c1ccc2ncccc2c1 [CBK305161]	102
O=C(C1CCCCC1)N1CCC(c2nnc3n2CCCCC3)CC1 [CBK284613]	92.7
CCc1c(C)nc2ccccc2c1S(=O)(=O)CCC(=O)OC [CBK155468T]	96.8
NC(=O)Cn1cc(CNC2(c3ccccc3)CC2)c2ccccc21 [CBK282776]	94.9
O=C(Nc1ccc(N2CCN(Cc3ccccc3)CC2)cc1)c1cncc(Br)c1 [CBK267093]	85
COc1ccc2nc(NC(=O)c3ccc(Br)s3)sc2c1 [CBK287316]	92.8
O=C(NCc1ccc2c(c1)OCO2)N1CCCC(CO)C1 (centres unmarked) [CBK156034]	104
COCCN1C(=O)CN(Cc2ccccc2)C1=O [CBK162369]	95.1
N#CCCN(Cc1cccnc1)C(=O)Cc1noc2ccccc12 [CBK304001]	113
CCN1C(=O)C(F)(CC)C(=O)c2ccccc21 (centres unmarked) [CBK098854]	107
Cc1ccc(-c2ncc(OCCN(C(C)C)C(C)C)nc2N)cc1C [CBK145150]	85.9
Cc1cc(C)n2nc(SCC(=O)O)nc2n1 [CBK268536]	111
Cn1c2ccccc2c2ncn(CCCO)c(=O)c21 [CBK287951]	56.9
